tested on: OVCAR-4 ovarian; assay: NCI tumour cell line growth inhibition, 48 h; in the data active = GI50 below about 0.43 µM; inactive = the rest
I would appreciate it if you answered using one of these outcomes: active, inactive

Answer briefly: the call reported for `CN1CCN(c2nc(-c3csc(-c4ccccc4)n3)cc3ccccc23)CC1` in this assay. inactive

Answer briefly: the call reported for `COc1cc2c3c(cc4c5c(ccc4c3c1OC)OCO5)N(CCN(C)C)C2=O` in this assay. active

Answer briefly: the call reported for `COCCNc1ccc2ncc(C#Cc3cncc(C(=O)Nc4ccc(CN5CCN(C)CC5)c(C(F)(F)F)c4)c3)n2n1` in this assay. active

Answer briefly: the call reported for `Cc1ccc2c(n1)C(=O)C(Cl)=C(Nc1cccc(C(C)C)c1)C2=O` in this assay. inactive

Answer briefly: the call reported for `C=C(C)[C@@H]1CC[C@]2(COS(C)(=O)=O)CC[C@]3(C)[C@H](CC[C@@H]4[C@@]5(C)CCCNC(C)(C)[C@@H]5CC[C@]43C)[C@@H]12` in this assay. inactive
